Target: Coagulation factor VII (Homo sapiens)
Sequence (P08709 61-212 limits assumed): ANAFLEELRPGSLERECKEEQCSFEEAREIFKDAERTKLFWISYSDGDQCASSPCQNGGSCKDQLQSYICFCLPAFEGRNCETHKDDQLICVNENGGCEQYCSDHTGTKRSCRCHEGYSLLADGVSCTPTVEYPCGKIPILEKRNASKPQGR
Sequence (P08709 213-466 limits assumed): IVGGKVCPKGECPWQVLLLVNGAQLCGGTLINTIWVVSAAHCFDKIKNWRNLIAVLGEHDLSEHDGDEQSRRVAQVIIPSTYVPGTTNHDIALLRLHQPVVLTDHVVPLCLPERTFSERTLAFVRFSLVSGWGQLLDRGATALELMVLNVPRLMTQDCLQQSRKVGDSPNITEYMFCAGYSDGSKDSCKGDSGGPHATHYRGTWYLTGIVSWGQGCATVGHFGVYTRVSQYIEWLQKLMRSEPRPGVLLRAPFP
reported property: pKi
Worth noting: pKi values are minus log10 of concentrations stated in mol/L.

// returns reported pKi for input NCCCC[C@H](NC(=O)OCc1ccccc1)C(=O)c1noc(Cc2ccc(C(=O)NC3Cc4ccccc4C3)cc2)n1
3.85

* * *

Molecular target: UniProt:P00742
Sequence (P00742 41-179 limits assumed): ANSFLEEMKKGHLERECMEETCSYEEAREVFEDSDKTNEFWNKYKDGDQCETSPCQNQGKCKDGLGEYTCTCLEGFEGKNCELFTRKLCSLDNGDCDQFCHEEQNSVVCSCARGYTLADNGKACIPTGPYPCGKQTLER
Sequence (P00742 235-488 limits assumed): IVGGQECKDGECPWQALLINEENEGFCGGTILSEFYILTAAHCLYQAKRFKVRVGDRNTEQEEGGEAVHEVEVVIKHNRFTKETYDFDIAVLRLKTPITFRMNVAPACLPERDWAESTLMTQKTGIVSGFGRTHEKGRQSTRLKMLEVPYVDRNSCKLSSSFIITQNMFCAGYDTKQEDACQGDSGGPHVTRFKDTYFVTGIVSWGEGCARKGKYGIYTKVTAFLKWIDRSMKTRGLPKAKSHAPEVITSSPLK
reported property: Ki
Record the result as a number with its unit.

Ki for NCCCC[C@H](NC(=O)OCc1ccccc1)C(=O)c1noc(Cc2ccc(C(=O)NC3Cc4ccccc4C3)cc2)n1 ?
100 µM

* * *

reported property: Ki (µM)
Give the quantity in µM, number only.

Request - read-out Ki | tested on Prothrombin (Homo sapiens, UniProt P00734) | molecule NCCCC[C@H](NC(=O)OCc1ccccc1)C(=O)c1noc(Cc2ccc(C(=O)NC3Cc4ccccc4C3)cc2)n1
48

* * *

Biological target: hERG (KCNH2) (Homo sapiens, UniProt Q12809)
Sequence (Q12809 whole entry): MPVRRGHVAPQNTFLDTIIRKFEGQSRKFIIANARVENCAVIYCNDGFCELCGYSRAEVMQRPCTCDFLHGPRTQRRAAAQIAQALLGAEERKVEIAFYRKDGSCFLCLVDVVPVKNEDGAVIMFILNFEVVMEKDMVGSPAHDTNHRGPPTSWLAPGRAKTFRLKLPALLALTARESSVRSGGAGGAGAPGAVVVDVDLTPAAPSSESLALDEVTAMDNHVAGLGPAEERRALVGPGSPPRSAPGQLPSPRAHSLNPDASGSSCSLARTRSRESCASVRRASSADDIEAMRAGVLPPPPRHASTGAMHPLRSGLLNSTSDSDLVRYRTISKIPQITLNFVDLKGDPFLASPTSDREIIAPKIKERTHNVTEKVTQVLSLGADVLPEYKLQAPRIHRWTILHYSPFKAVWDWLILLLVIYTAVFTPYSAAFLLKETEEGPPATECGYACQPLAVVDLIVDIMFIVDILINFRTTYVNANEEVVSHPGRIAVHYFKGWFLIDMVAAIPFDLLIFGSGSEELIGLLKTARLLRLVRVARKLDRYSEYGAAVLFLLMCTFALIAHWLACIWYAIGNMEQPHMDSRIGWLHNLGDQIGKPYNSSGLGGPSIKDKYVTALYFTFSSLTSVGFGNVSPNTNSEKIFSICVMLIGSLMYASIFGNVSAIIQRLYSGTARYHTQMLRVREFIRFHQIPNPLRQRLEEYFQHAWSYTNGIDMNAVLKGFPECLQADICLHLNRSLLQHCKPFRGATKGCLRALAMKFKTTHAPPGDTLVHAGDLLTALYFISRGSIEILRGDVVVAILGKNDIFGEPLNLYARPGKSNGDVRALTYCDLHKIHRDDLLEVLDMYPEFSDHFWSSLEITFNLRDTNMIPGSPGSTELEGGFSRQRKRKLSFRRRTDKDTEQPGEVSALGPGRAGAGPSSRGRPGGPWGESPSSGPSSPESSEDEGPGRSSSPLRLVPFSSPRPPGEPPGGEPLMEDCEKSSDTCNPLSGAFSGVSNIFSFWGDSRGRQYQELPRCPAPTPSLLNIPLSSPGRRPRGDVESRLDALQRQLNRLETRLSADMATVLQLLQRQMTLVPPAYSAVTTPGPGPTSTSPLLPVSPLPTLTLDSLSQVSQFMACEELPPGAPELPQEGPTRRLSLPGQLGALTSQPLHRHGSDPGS
Assay: Inhibition of hERG at 10 uM
Assay type: toxicity
reported property: inhibition at 10 µM (%)
Your answer should be a plain number; it is taken to be in %.

Please look up its inhibition at 10 µM: NCCCC[C@H](NC(=O)OCc1ccccc1)C(=O)c1noc(Cc2ccc(C(=O)NCCc3cccs3)cc2)n1
7.2

Request the reported inhibition at 10 µM associated with NCCCC[C@H](NC(=O)OCc1ccccc1)C(=O)c1noc(CN2CCN(C(=O)CCCc3ccccc3)CC2)n1
2.3

* * *

Target: Trypsin (Homo sapiens, UniProt P07477+P07478+P35030)
Experiment: Inhibition of human trypsin
Format: protein assay
Can you tell me Ki for the items I'm about to list?
API: value field is a number in nM; no unit string.

Would you mind telling me what Ki value was observed for NCCCC[C@H](NC(=O)OCc1ccccc1)C(=O)c1noc(Cc2ccc(C(=O)NCCc3ccc(Cl)c(Cl)c3)cc2)n1 ?
31

Reported Ki, compound COc1ccc(Cc2nc(C(=O)[C@H](CCCCN)NC(=O)OCc3ccccc3)no2)cc1 : ____
22

Item NCCCC[C@H](NC(=O)c1ccc(Cl)cc1)C(=O)c1noc(Cc2ccc(C(=O)NCCc3cccc(Cl)c3)cc2)n1 has what recorded Ki?
330

So what's the measured Ki for this one? Cc1ccc(CNC(=O)c2ccc(Cc3nc(C(=O)[C@H](CCCCN)NC(=O)OCc4ccccc4)no3)cc2)cc1C
34

* * *

Kindly state Ki for each of the entries shown.
Please state the figure in nM; there is no need to write the unit.

Param readout= Ki; system= Tryptase beta-1 (Homo sapiens, UniProt Q15661); entry= NCCCC[C@H](NC(=O)c1ccc(F)c(F)c1)C(=O)c1noc(Cc2ccc(C(=O)NCCc3cccc(Cl)c3)cc2)n1 ; returns value.
1.7

I'm curious: which Ki was measured for NCCCC[C@H](NC(=O)c1ccc(Cl)cc1)C(=O)c1noc(Cc2ccc(C(=O)NCCc3cccc(Cl)c3)cc2)n1 tested on Tryptase beta-1 (Homo sapiens, UniProt Q15661)?
1.9

I'm curious: which Ki was measured for NCCCC[C@H](NC(=O)OCc1ccccc1)C(=O)c1noc(Cc2ccc(C(=O)NCc3ccc4ccccc4c3)cc2)n1 tested on Tryptase beta-1 (Homo sapiens, UniProt Q15661)?
11

Record lookup: for Tryptase beta-1 (Homo sapiens, UniProt Q15661), what Ki belongs to NCCCC[C@H](NC(=O)OCc1ccccc1)C(=O)c1noc(Cc2ccc(C(=O)NC/C=C/c3ccccc3)cc2)n1 ?
3.6

Checklist item: Ki tested on Tryptase beta-1 (Homo sapiens, UniProt Q15661), entry NCCCC[C@H](NC(=O)OCc1ccccc1)C(=O)c1noc(Cc2ccc(C(=O)NCCc3ccc(C(F)(F)F)cc3)cc2)n1 , value?
220

Find the measured Ki: item NCCCC[C@H](NC(=O)OCc1ccccc1)C(=O)c1noc(Cc2ccc(C(=O)NCc3ccccc3)cc2)n1 , target or system Tryptase beta-1 (Homo sapiens, UniProt Q15661).
37

Give Ki (Tryptase beta-1 (Homo sapiens, UniProt Q15661)) of the following molecule: NCCCC[C@H](NC(=O)OCc1ccccc1)C(=O)c1noc(Cc2ccc(C(=O)NCCCCc3ccccc3)cc2)n1
60

I'm curious: which Ki was measured for NCCCC[C@H](NC(=O)OCc1ccccc1)C(=O)c1noc(Cc2ccc(C(=O)NCCCc3ccccc3)cc2)n1 tested on Tryptase beta-1 (Homo sapiens, UniProt Q15661)?
3

I'm curious: which Ki was measured for NCCCC[C@H](NC(=O)OCc1ccccc1)C(=O)c1noc(Cc2ccc(C(=O)NCCc3ccccc3)cc2)n1 tested on Tryptase beta-1 (Homo sapiens, UniProt Q15661)?
3.2

Hi! What's the reported Ki for CC(C)(C)C(=O)N[C@@H](CCCCN)C(=O)c1noc(Cc2ccc(C(=O)NCCc3cccc(Cl)c3)cc2)n1 on Tryptase beta-1 (Homo sapiens, UniProt Q15661)?
2

Lab note: need Ki with Tryptase beta-1 (Homo sapiens, UniProt Q15661) for entry CCOC(=O)N[C@@H](CCCCN)C(=O)c1noc(Cc2ccc(C(=O)NCCc3cccc(Cl)c3)cc2)n1 , please look it up.
Sequence (Q15661 whole entry): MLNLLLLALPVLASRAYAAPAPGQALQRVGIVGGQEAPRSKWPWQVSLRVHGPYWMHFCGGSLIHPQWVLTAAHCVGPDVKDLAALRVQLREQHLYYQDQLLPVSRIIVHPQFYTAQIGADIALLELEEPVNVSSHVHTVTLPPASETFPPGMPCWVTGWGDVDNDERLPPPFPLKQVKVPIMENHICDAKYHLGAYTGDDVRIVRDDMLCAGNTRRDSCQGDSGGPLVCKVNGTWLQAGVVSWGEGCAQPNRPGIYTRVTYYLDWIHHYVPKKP
1.9

Fill in the recorded Ki for this molecule, with Tryptase beta-1 (Homo sapiens, UniProt Q15661) as test system: NCCCC[C@H](NC(=O)OCc1ccccc1)C(=O)c1noc(Cc2ccc(C(=O)NCCc3cccs3)cc2)n1
2.4

Item NCCCC[C@H](NC(=O)OCc1ccccc1)C(=O)c1noc(CN2CCN(CCCc3ccccc3)CC2)n1 with Tryptase beta-1 (Homo sapiens, UniProt Q15661) - Ki?
11

Form entry - test system: Tryptase beta-1 (Homo sapiens, UniProt Q15661); read-out: Ki; molecule: NCCCC[C@H](NC(=O)OCc1ccccc1)C(=O)c1noc(Cc2ccc(C(=O)NCCc3cc(F)cc(F)c3)cc2)n1
3.5

Find the measured Ki: item CC(C)CCNC(=O)c1ccc(Cc2nc(C(=O)[C@H](CCCCN)NC(=O)OCc3ccccc3)no2)cc1 , target or system Tryptase beta-1 (Homo sapiens, UniProt Q15661).
9.9

* * *

Biological target: Trypsin (Homo sapiens, UniProt P07477+P07478+P35030)
Assay: Inhibition of human trypsin
Format: protein assay
reported property: Ki

So what does the record say about Ki for NCCCC[C@H](NC(=O)OCc1ccccc1)C(=O)c1noc(Cc2ccc(C(=O)NCCCc3ccccc3)cc2)n1 ?
19 nM

Request the reported Ki associated with NCCCC[C@H](NC(=O)OCc1ccccc1)C(=O)c1noc(Cc2ccc(C(=O)NCCc3cccs3)cc2)n1
13 nM

Param item = NCCCC[C@H](NC(=O)OCc1ccccc1)C(=O)c1noc(Cc2ccc(C(=O)N3CCN(Cc4ccccc4F)CC3)cc2)n1 ; retrieve measured Ki.
3.7 nM

Please report the recorded Ki for NCCCC[C@H](NC(=O)OCc1ccccc1)C(=O)c1noc(Cc2ccc(C(=O)NCCc3cccc(C(F)(F)F)c3)cc2)n1 .
30 nM

* * *

Would you mind telling me the reported remaining at 1 h of each entry?
Experiment: Stability in human liver microsome after 1 hr
Format: ADME
Conditions: liver microsomes, read-out: Stability
Use % as the unit, but write only the number.

Value lookup for remaining at 1 h; key = NCCCC[C@H](NC(=O)OCc1ccccc1)C(=O)c1noc(CN2CCN(CCCCc3ccccc3)CC2)n1
22

Value lookup for remaining at 1 h; key = NCCCC[C@H](NC(=O)OCc1ccccc1)C(=O)c1noc(CN2CCN(C(=O)CCCc3ccccc3)CC2)n1
2

Which remaining at 1 h is listed for CCOC(=O)N[C@@H](CCCCN)C(=O)c1noc(Cc2ccc(C(=O)NC3Cc4ccccc4C3)cc2)n1 ?
64

* * *

Target: Trypsin (Homo sapiens, UniProt P07477+P07478+P35030)
Assay: Inhibition of human trypsin
Format: protein assay
Param label: returns 1 (yes) when Ki < 20 nM, returns 0 (no) otherwise, including exact equality.

Dear colleague, could you confirm whether Ki of NCCCC[C@H](NC(=O)OCc1ccccc1)C(=O)c1noc(Cc2ccc(C(=O)NCCc3cccc(Cl)c3)cc2)n1 falls below 20 nM? Thanks.
0 (no)

Is it true that Ki reported for CCOC(=O)N[C@@H](CCCCN)C(=O)c1noc(Cc2ccc(C(=O)NC3Cc4ccccc4C3)cc2)n1 is less than 20 nM?
0 (no)

Is it true that Ki reported for NCCCC[C@H](NC(=O)OCc1ccccc1)C(=O)c1noc(Cc2ccc(C(=O)NCCc3cc(F)cc(F)c3)cc2)n1 is less than 20 nM?
1 (yes)

Identify whether the compound NCCCC[C@H](NC(=O)OCc1ccccc1)C(=O)c1noc(Cc2ccc(C(=O)NC3Cc4ccccc4C3)cc2)n1 records Ki below 20 nM.
0 (no)

Say whether its Ki is strictly beneath 20 nM. Entry: NCCCC[C@H](NC(=O)OCc1ccccc1)C(=O)c1noc(CN2CCN(CCCCc3ccccc3)CC2)n1
1 (yes)

Dear reviewer, please state whether NCCCC[C@H](NC(=O)OCc1ccccc1)C(=O)c1noc(CN2CCN(C(=O)OCc3ccccc3)CC2)n1 has Ki strictly beneath 20 nM.
0 (no)

In plain terms, does NCCCC[C@H](NC(=O)OCc1ccccc1)C(=O)c1noc(Cc2ccc(C(=O)NCc3ccc4ccccc4c3)cc2)n1 come in under 20 nM for Ki?
1 (yes)
